Exercise: for every item that follows, state its recorded pIC50.
# measurement_target: human Syk (GST-Syk) (Homo sapiens)
# Construct: A cDNA fragment encoding human Syk openreading frame was cloned; made in house; host or cells: Sf21 insect cells (baculovirus, transfer vector pAcG2T)
# assay_remarks: Syk tyrosine kinase inhibitory assay
# Assay type: biochemical
# test_parameters: Table 16; read-out: Activity grade
pIC50: −log10 of the molar value.

- smiles_notation: "CCSc1nc(-c2ccc(OC)c(NCCCN(C)C)c2)cc2nccn12"
  pIC50: "> 6.30"
- smiles_notation: "CCSc1nc(-c2ccc(N(C)CCCN3CCOCC3)c(OC)c2)cc2nccn12"
  pIC50: "> 6.30"
- smiles_notation: "CCSc1nc(-c2ccc(NCCCN3CCN(C)CC3)c(OC)c2)cc2nccn12"
  pIC50: "> 6.30"
- smiles_notation: "CCSc1nc(-c2ccc(N(C)C)c(OC)c2)cc2nccn12"
  pIC50: "> 6.30"
- smiles_notation: "CCSc1nc(-c2ccc(NCCCn3ccnc3)c(OC)c2)cc2nccn12"
  pIC50: "> 6.30"
- smiles_notation: "CCSc1nc(-c2ccc(NC)c(OC)c2)cc2nccn12"
  pIC50: "5.70 to 6.30"
- smiles_notation: "CCSc1nc(-c2ccc(OCCOC)c(OC)c2)cc2nccn12"
  pIC50: "5.70 to 6.30"
- smiles_notation: "CCSc1nc(-c2ccc(OC)c(NCCN(C)C)c2)cc2nccn12"
  pIC50: "5.70 to 6.30"

# ---- query molecule ----
Query: Reported pIC50, molecule CCSc1nc(-c2ccc(NCc3ccccc3)c(OC)c2)cc2nccn12 : ____
Result: 5.00 to 5.70
